So I've got a bunch of compounds here, and I need their EC50 values.
- Test system: HCV replicon in HUH-7 cells
- assay.protocol: HCV replicon FRET assay
- Assay type: cell-based, HCV strain 1b
- test.settings: Hepatitis C virus, Huh-7; HCV replicon cell assay; read-out: Activity Range (EC50)

// each compound listed below needs its EC50
1. C=C[C@@H]1C[C@]1(NC(=O)[C@@H]1C[C@@](O)(c2cccc(N(C)C)c2)CN1C(=O)[C@@H](NC(=O)OC(C)(C)C)C(C)(C)C)C(=O)NS(=O)(=O)C1CC1 [Compound 16]
2. C=C[C@@H]1C[C@]1(NC(=O)[C@@H]1C[C@@](O)(c2ccc3ccccc3c2)CN1C(=O)[C@@H](NC(=O)OC(C)(C)C)C(C)(C)C)C(=O)NS(=O)(=O)C1CC1 [Compound 5]
3. C=C[C@@H]1C[C@]1(NC(=O)[C@@H]1C[C@@](O)(c2cccc(CN3CCOCC3)c2)CN1C(=O)[C@@H](NC(=O)OC(C)(C)C)C(C)(C)C)C(=O)NS(=O)(=O)C1CC1 [Compound 19]
4. C=C[C@@H]1C[C@]1(NC(=O)[C@@H]1C[C@@](O)(c2cccc(Cl)c2)CN1C(=O)[C@@H](NC(=O)OC(C)(C)C)C(C)(C)C)C(=O)NS(=O)(=O)C1CC1 [Compound 12]
5. C=C[C@@H]1C[C@]1(NC(=O)[C@@H]1C[C@@](O)(c2ccc(F)cc2)CN1C(=O)[C@@H](NC(=O)OC(C)(C)C)C(C)(C)C)C(=O)NS(=O)(=O)C1CC1 [Compound 6]

["> 10 µM", "0.01 to 1 µM", "> 10 µM", "1 to 10 µM", "1 to 10 µM"]
